- assay_method_text: FABP binding to cannabinoids by ANS displacement (THC as ligand)
- condition_summary: 2 uM protein, 20 uM ANS, 33 uM THC; decrease in fluorescence vs protein without ligand
experimental_readout: binding to THC by ANS displacement

{"molecule": "Plant FABP WT: Wild type FABP from the plant Rhodamnia argentea, SEQ ID NO. 77 (protein, listed as Rhodamnia argentea) MTEFAGVYEFVKDDGKFEEILKAMDVNFLIRKVAGKMNPNTAIDVLDDGKMAFKTITPLKTVEIHFELGKEYENKRLDGTVVKGIVTRDGNKLIQEQMSEPKFKVIRELDGPEKLIVTWMCKDIVCVREYKRIQT", "experimental_readout": "binding to THC by ANS displacement", "meas_value": "bind"}
